# reported GI50; entries follow
Test system: A498
MEASUREMENT_DESCRIPTION: NCI tumour cell line growth inhibition, 48 h
Activity calls are given as the source filed them. Cut-off read from the data, not from the text of the source: active = GI50 up to about 1.1 µM and inactive = higher.

In the examples that follow, each entry is paired with its recorded GI50.
COc1cc(-c2cc(-c3cc([N+](=O)[O-])c(/C=N/NC(=O)c4ccncc4)o3)ccc2OC)ccc1C: > 100 µM (inactive)
CC(=O)Nc1ccc(S(=O)(=O)N/N=C/c2cc(I)cc([N+](=O)[O-])c2O)cc1: > 100 µM (inactive)

stdin: Fill in the blank: the reported GI50 of Cc1cc(Cl)ccc1NC(=O)C(=O)Cc1nc2ccccc2o1 is ____.
stdout: > 100 µM (inactive)

stdin: Fill in the blank: the reported GI50 of CC(C)c1cccc(C(C)C)c1NC(=O)/C(CC(=O)CC(c1ccccc1)c1c(O)c2ccccc2oc1=O)=N/O (centres undefined) is ____.
stdout: > 100 µM (inactive)

stdin: Fill in the blank: the reported GI50 of CCOC(=O)c1sc2[n+](c1C)C(=O)/C(=C/c1ccccc1Cl)S2 is ____.
stdout: 6.92 µM (inactive)

stdin: Fill in the blank: the reported GI50 of O=C(O)c1ccc(/C=N/N=C2c3ccccc3-c3ccccc32)cc1 is ____.
stdout: > 100 µM (inactive)

stdin: Fill in the blank: the reported GI50 of COc1ccc2c(c1)OC[C@@H]1c3cc4c(cc3O[C@H]21)OCO4 is ____.
stdout: > 100 µM (inactive)

stdin: Fill in the blank: the reported GI50 of c1csc(-c2cc(-c3cccs3)c(-c3ccsc3)s2)c1 is ____.
stdout: > 100 µM (inactive)

stdin: Fill in the blank: the reported GI50 of Cc1nn2c(C(=O)N/N=C/c3ccccc3O)c(C)nc2s1 is ____.
stdout: 61.5 µM (inactive)

* * *

Test system: K562
MEASUREMENT_DESCRIPTION: NCI tumour cell line growth inhibition, 48 h
Active and inactive are the calls of the source. Cut-off read from the data, not from the text of the source: active = GI50 up to about 1.1 µM and inactive = higher.
Returns: one label drawn from True = active, False = inactive

O=[N+]([O-])c1ccc(-c2noc(-c3ccc(Cl)cc3)c2C2=NCCN2)cc1: False
NC(=O)c1cc2ccccc2o/c1=N/c1ccccc1: False
Nc1nc(Cl)c(CO)c(NCC2(CO)CC(CCc3ccccc3)C2)n1 (stereo not given): False

stdin: So what was the verdict on [O-][n+]1onc2c1-c1nonc1CC2 in this test?
stdout: False

stdin: So what was the verdict on Nc1ccc2c(c1)Nc1c3ccccc3nc3cccc-2c13 in this test?
stdout: True

stdin: So what was the verdict on Cn1c(N2CCCC2)c(C=O)c(=O)n(C)c1=O in this test?
stdout: False

stdin: So what was the verdict on Cc1nnc2n(c1=O)CCCN2C in this test?
stdout: False

stdin: So what was the verdict on CC[n+]1c(/C=C/c2ccc(N(CCCl)CCCl)cc2)ccc2cc(NC(=O)/C=C/c3ccccc3)ccc21 in this test?
stdout: True

stdin: So what was the verdict on O=C(/C=C/c1ccc(Oc2cc(C(=O)/C=C/c3ccc(O)cc3)c(O)cc2O)cc1)c1ccc(O)cc1O in this test?
stdout: False

stdin: So what was the verdict on N=C(N)NCCNC(=N)N in this test?
stdout: False

stdin: So what was the verdict on CC1=CC(=O)C(=O)C2=C1OC1(C2)C(C)CCC2C3(C)CCC(O)C(C)(C)C3CCC21C (stereo not given) in this test?
stdout: False

stdin: So what was the verdict on Nc1n[nH]c2c1Cc1c(n(Cc3ccc(Cl)cc3)c3ccccc13)C(=O)N2 in this test?
stdout: False

stdin: So what was the verdict on CN(C)/C=N/C1CCC(C(C)(C)C)CC1 (stereo not given) in this test?
stdout: False

stdin: So what was the verdict on CCN1CN(c2ccccc2)C2(CCN(CCCSc3ccc(F)cc3)CC2)C1=O in this test?
stdout: False

stdin: So what was the verdict on N#Cc1nc(-c2ccccn2)oc1N in this test?
stdout: False

stdin: So what was the verdict on COC(=O)c1ccc(NCc2cc(O)c3ccccc3c2O)cc1 in this test?
stdout: False

stdin: So what was the verdict on Cc1ccc(-c2ccc3c(c2)Sc2ccccc2O3)n1C in this test?
stdout: True

stdin: So what was the verdict on O=c1cc(/C=C/c2ccc(O)c(O)c2)oc(/C=C/c2ccc(O)c(O)c2)c1 in this test?
stdout: False

stdin: So what was the verdict on COC(=O)CC(=O)OC1C[C@@H]2CCC3C(C)(C)CCC[C@]3(C)C23CC[C@@]1(C)C3 (stereo not given in full) in this test?
stdout: False

stdin: So what was the verdict on CC(C)CC1C(=O)NCCC(NC(=O)C(Cc2ccc(OC(C)(C)C)cc2)NC(=O)OC(C)(C)C)C(=O)NC(Cc2ccccc2)C(=O)NC(Cc2ccccc2)NC1=O (stereo not given) in this test?
stdout: False

* * *

Test system: U-251
MEASUREMENT_DESCRIPTION: NCI tumour cell line growth inhibition, 48 h
Calls of active or inactive are those of the source. Rule as the data show it: active = GI50 up to about 1.1 µM and inactive = higher.
MEASUREMENT_KIND: GI50

In the examples that follow, each entry is paired with its recorded GI50.
NC(=O)c1cc2ccccc2o/c1=N/c1ccccc1: > 100 µM (inactive)
CCOC1CN(C)/C(=N\c2cccc3ccccc23)S1 (stereo not given): > 10 µM (inactive)
COc1ccc2c(c1)OC[C@@H]1c3cc4c(cc3O[C@H]21)OCO4: > 100 µM (inactive)

stdin: Fill in the blank: the reported GI50 of COc1cccc(-c2nc(-c3cnccn3)n(C3OC(CO)C(O)C3O)n2)c1 (stereo not given) is ____.
stdout: > 100 µM (inactive)

stdin: Fill in the blank: the reported GI50 of Cc1nn(-c2ccccc2)c2nc3c(c(C)nn3-c3ccccc3)c(-c3ccc(C(F)(F)F)cc3)c12 is ____.
stdout: > 100 µM (inactive)

stdin: Fill in the blank: the reported GI50 of Nc1c(S(=O)(=O)O)cc(S(=O)(=O)O)c2ccc(/N=N/c3ccc(/C=C/c4ccc(/N=N/c5ccc6c(S(=O)(=O)O)cc(S(=O)(=O)O)c(N)c6c5O)cc4S(=O)(=O)O)c(S(=O)(=O)O)c3)c(O)c12 is ____.
stdout: > 100 µM (inactive)

stdin: Fill in the blank: the reported GI50 of Cc1cccc(C)c1NC(=S)NC=C(C(N)=O)C(N)=O is ____.
stdout: > 100 µM (inactive)

stdin: Fill in the blank: the reported GI50 of CC1=C(SCCO)C(=O)c2ccccc2C1=O is ____.
stdout: 13.3 µM (inactive)

stdin: Fill in the blank: the reported GI50 of CC(=O)O[C@H]1C(=O)[C@@]2(C)[C@H]([C@H](OC(=O)c3ccccc3)[C@]3(O)C[C@H](OC(=O)[C@H](O)[C@@H](NC(=O)C(C)(C)C)c4ccccc4)C(C)=C1C3(C)C)[C@]1(OC(C)=O)CO[C@@H]1C[C@@H]2O is ____.
stdout: 0.137 µM (active)

stdin: Fill in the blank: the reported GI50 of O=Cc1ccc2c(c1I)OCO2 is ____.
stdout: > 100 µM (inactive)

stdin: Fill in the blank: the reported GI50 of CC1(C)OC[C@H](C(=N)OCc2ccccc2)O1 is ____.
stdout: > 100 µM (inactive)

stdin: Fill in the blank: the reported GI50 of COC(=O)C1=C(C)C(=O)C2(CCCCCC2C(=O)OC)C1 (stereo not given) is ____.
stdout: > 100 µM (inactive)

stdin: Fill in the blank: the reported GI50 of C#CCNC(CCCNC(=N)N)C(=O)O (stereo not given) is ____.
stdout: > 100 µM (inactive)

stdin: Fill in the blank: the reported GI50 of Cc1ccc(S(=O)(=O)N/N=C/C(C)C)cc1 is ____.
stdout: > 100 µM (inactive)

stdin: Fill in the blank: the reported GI50 of Cc1cc(=O)oc2c(CN(CCCl)CCCl)c(O)ccc12 is ____.
stdout: 38.4 µM (inactive)

* * *

Tested on: M14
MEASUREMENT_DESCRIPTION: NCI tumour cell line growth inhibition, 48 h
The source made the active and inactive calls. Rule as the data show it: active = GI50 up to about 1.1 µM and inactive = higher.
Returns: one label drawn from active, inactive

CC(=O)O[C@H]1C(=O)[C@@]2(C)[C@H]([C@H](OC(=O)c3ccccc3)[C@]3(O)C[C@H](OC(=O)[C@H](O)[C@@H](NC(=O)C(C)(C)C)c4ccccc4)C(C)=C1C3(C)C)[C@]1(OC(C)=O)CO[C@@H]1C[C@@H]2O: active

stdin: So what was the verdict on O=C1/C(=N\O)C2CCC1C2 (stereo not given) in this test?
stdout: inactive

stdin: So what was the verdict on CCOC(=O)C(C)Sc1nnc(COc2ccc(Cl)cc2)n1-c1ccccc1 (stereo not given) in this test?
stdout: inactive

stdin: So what was the verdict on CC(C)OCN1COCN/C1=N/C#N in this test?
stdout: inactive

stdin: So what was the verdict on C/C=C/[C@@H]1O[C@H](CC#C[Si](C)(C)C)[C@@]2(C=O)C(C)=CC[C@H](C(C)C)[C@@H]12 in this test?
stdout: inactive

These entries and their values trace back to ChEMBL document CHEMBL1201862.
